Ref: PubChem BioAssay (NCI)

Tested on: UO-31 renal
Assay: NCI tumour cell line growth inhibition, 48 h
Where a SMILES comes first, the peptide text is derived from it. [ ]: non-standard residue; d: D form. The star is where a group is joined. ξ: configuration not given here. X16 = COC1=CC(=O)N(C(=O)C(O*)C(C)C)C1Cc1ccccc1; ξNMe2Val = CC(C)C(C(=O)*)N(C)C; NMeV = CN[CH](C(=O)O)C(C)C

| molecule | TGI |
| --- | --- |
| COC(=O)C1Cc2c(C)cccc2C1=O (stereo not drawn) | > 100 µM |
| COC1=CC(=O)N(C(=O)C(OC(=O)C2CCCN2C(=O)C2CCCN2C(=O)C(C(C)C)N(C)C(=O)C(NC(=O)C(C(C)C)N(C)C)C(C)C)C(C)C)C1Cc1ccccc1 (stereo not drawn) (ξNMe2Val-V[NMeV]PP-X16; configuration not given here) | > 4 µM |
| COC[C@H]1C(=O)NCC(=O)N2NCCC[C@H]2C(=O)N(O)[C@H](C)C(=O)O[C@@H](C(C)C)[C@H](NC(=O)[C@](C)(O)[C@]2(O)CC[C@@H](CC(C)C)[C@H](C)O2)C(=O)N2NCCC[C@@H]2C(=O)N1O | 0.0458 µM |
| Cc1ccc(-c2cc(-c3ccco3)nc(N)n2)o1 | > 100 µM |
| Cc1c2c(n3c(nc4ccccc43)c1C#N)N(c1ccc(Cl)cc1)CC2 | > 100 µM |
| CC(C)(C)C1CC[C@H]2c3c([nH]c4ccc(Br)cc34)[C@H]3C(=O)N(c4ccccc4)C(=O)[C@H]3[C@H]2C1 (stereo partly drawn) | > 100 µM |
| CSc1nc2c(c(N(C)C)n1)C=Nn1c(nc3ccccc31)S2 | > 100 µM |
| O=C(CC12CC3CC(CC(C3)C1)C2)NCCOCCOCCNC(=O)c1cc2c(o1)C(=O)c1ccccc1C2=O | 3.09 µM |
| COC(=O)[C@]1(C)CCCn2c(=O)n(-c3ccccc3)c(=O)n21 | > 100 µM |
| COc1cc(-c2c3c(cn2S(=O)(=O)c2ccccc2)-c2nc(N)sc2CC3)cc(OC)c1OC | > 100 µM |
| CCCCCCCCCCCCCCCC[N+](C)(C)Cc1ccc(C[N+](C)(C)CCCCCCCCCCCCCCCC)cc1 | > 100 µM |
| O=C(Cn1ccnc1[N+](=O)[O-])N(CCO)CCO | > 1250 µM |
| CCOc1ncn(-c2ccc(NC(=S)Nc3cccc(O)c3)cc2)n1 | > 100 µM |
